Assay: A CellTox Green Cytotoxicity Assay to monitor cytotoxicity in HEK293 cells - 24 hour (AID 1224875); further: nearly all actives have a fitted effect of over 45% in size
Conditions: CellTox Green fluorescence; series mostly up to 76.8 µM
Results filed as inconclusive are left out. Active and inactive are the calls of the source. The call rests on the fitted dose curve; in most records, active means well fitted activation curve with a large enough effect in the repeat runs; inconclusive means weak or mixed curves; inactive means flat fitted curve, though single readings scatter.

molecule: CC(=O)OC(C)C
outcome: inactive

molecule: Cc1ccc(C)c(O)c1
outcome: inactive

molecule: O=C(O)CCCC(=O)O
outcome: inactive

molecule: CC(C)=CCO
outcome: inactive

molecule: CC1(C)NC(=O)N(c2ccc([N+](=O)[O-])c(C(F)(F)F)c2)C1=O
outcome: inactive

molecule: c1ccc2c(c1)ccc1cc3c(ccc4ccccc43)cc12
outcome: inactive

molecule: CCCCCC1C(=O)CCC1CC(=O)OC (configuration not stated)
outcome: inactive

molecule: Nc1ccc2c(c1)C(=O)c1ccccc1C2=O
outcome: inactive

molecule: COc1ccc2nc(N)sc2c1
outcome: inactive

molecule: NCCS(=O)(=O)O
outcome: inactive

molecule: CCCN1C=CN(C)C1
outcome: inactive

molecule: CCCCCCC(C)O (configuration not stated)
outcome: inactive

molecule: CCCCCC=O
outcome: inactive

molecule: COc1ccc(C(=O)c2ccccc2O)c(O)c1
outcome: inactive

molecule: C=CC(C)(O)CCC=C(C)C (configuration not stated)
outcome: inactive

molecule: O=C(O)c1ccc(O)cc1
outcome: inactive

molecule: Cc1ccc(C(C)(C)C)cc1
outcome: inactive

molecule: CC(=O)Oc1ccc(C(c2ccc(OC(C)=O)cc2)c2ccccn2)cc1
outcome: inactive

molecule: C=CCOC(=O)C(=C)C
outcome: inactive

molecule: C1COCCN1
outcome: inactive

molecule: c1ccc2ncccc2c1
outcome: inactive

molecule: Nc1cc(Cl)c(N)c(Cl)c1
outcome: inactive

* * *

Test: A CellTox Green Cytotoxicity Assay to monitor cytotoxicity in HepG2 cells - 32 hour (AID 1224883); further: nearly all actives have a fitted effect of over 50% in size
Details: CellTox Green fluorescence; series mostly up to 76.8 µM
Results filed as inconclusive are left out. Calls of active or inactive are those of the source. Calls follow the shape of the dose curve; as a rule, active = well fitted activation curve with a large enough effect in the repeat runs; inconclusive = weak or mixed curves; inactive = flat fitted curve, though single readings scatter.
Classes used: True (active), False (inactive)

molecule: Clc1ccc(Sc2cc(Cl)c(Cl)cc2Cl)cc1
assignedCategory: False
//
molecule: C=CCNCC=C
assignedCategory: False
//
molecule: CCCCCCC(C)O (configuration not stated)
assignedCategory: False
//
molecule: c1ccc2c(c1)[nH]c1ccccc12
assignedCategory: False
//
molecule: CC/C(=C(/CC)c1ccc(O)cc1)c1ccc(O)cc1
assignedCategory: False
//
molecule: O=S1(=O)CCCO1
assignedCategory: False
//
molecule: CC(C)(Oc1ccc(Cl)cc1)C(=O)O
assignedCategory: False
//
molecule: Nc1ccc2c(c1)C(=O)c1ccccc1C2=O
assignedCategory: False
//
molecule: CCC/C=C/C=O
assignedCategory: False
//
molecule: C/C=C/C(=O)N(CC)c1ccccc1C
assignedCategory: False
//
molecule: C=CCCCCCCCCCC
assignedCategory: False
//
molecule: CCCCCC=O
assignedCategory: False
//
molecule: NCCN
assignedCategory: False
//
molecule: Oc1c(Cl)ccc(Cl)c1Cl
assignedCategory: False
//
molecule: CC1(C)NC(=O)N(c2ccc([N+](=O)[O-])c(C(F)(F)F)c2)C1=O
assignedCategory: False
//
molecule: CC/C=C\C/C=C\C/C=C\CCCCCCCC(=O)O
assignedCategory: False
//
molecule: Cc1ccc(C(C)(C)C)c(O)c1
assignedCategory: True
//
molecule: [O-]/[N+](=N\O)c1ccccc1
assignedCategory: False
//
molecule: Nc1cc([N+](=O)[O-])ccc1C(=O)O
assignedCategory: False
//
molecule: CC1(C)O[C@@H]2C[C@H]3[C@@H]4C[C@H](F)C5=CC(=O)C=C[C@]5(C)[C@@]4(F)[C@@H](O)C[C@]3(C)[C@]2(C(=O)CO)O1
assignedCategory: False
//
molecule: CC(=O)[C@H]1CC[C@H]2[C@@H]3CC=C4C[C@@H](O)CC[C@]4(C)[C@H]3CC[C@]12C
assignedCategory: False
//
molecule: C1CN(SSN2CCOCC2)CCO1
assignedCategory: False
//
molecule: CN1CCOCC1
assignedCategory: False
//
molecule: CC(=O)O[C@]1(C(C)=O)CC[C@H]2[C@@H]3C=C(Cl)C4=CC(=O)CC[C@]4(C)[C@H]3CC[C@@]21C
assignedCategory: False
//
molecule: C=C[C@@]1(C)CC(=O)[C@]2(O)[C@@]3(C)[C@@H](O)CCC(C)(C)[C@@H]3[C@H](O)[C@H](OC(C)=O)[C@@]2(C)O1
assignedCategory: False
//
molecule: Nc1ccc2c(O)cc(S(=O)(=O)O)cc2c1
assignedCategory: False
//
molecule: O=C(O)c1cc(=O)[nH]c(=O)[nH]1
assignedCategory: False

* * *

Experiment: qHTS assay to test for compound auto fluorescence at 460 nm (blue) in HepG2 cell free culture (AID 720685)
Conditions: Cell-free culture medium, blue autofluorescence 405/460 nm; series mostly up to 91.3 µM
The source made the active and inactive calls. Calls follow the shape of the dose curve; as a rule, active = well fitted curve in the direction sought with a large enough effect in the repeat runs; inconclusive = weak or mixed curves; inactive = flat fitted curve, though single readings scatter.
Classes used: active, inactive

molecule: CCCCCCC(C)O (centres undefined)
assignedCategory: inactive
--
molecule: COC(=O)C(C)Oc1ccc(Oc2ncc(C(F)(F)F)cc2Cl)cc1 (centres undefined)
assignedCategory: inactive
--
molecule: COC(=O)CC(=O)OC
assignedCategory: inactive
--
molecule: C=C[C@H]1CN2CC[C@H]1C[C@@H]2[C@@H](O)c1ccnc2ccc(OC)cc12
assignedCategory: inactive
--
molecule: CC1(C)OC(=O)NC1=O
assignedCategory: inactive
--
molecule: NCCN
assignedCategory: inactive
--
molecule: Cc1ccc(/C(=C\CN2CCCC2)c2ccccn2)cc1
assignedCategory: inactive
--
molecule: CCCCCCCC/C=C\CCCCCCCC(=O)O
assignedCategory: inactive
--
molecule: CC1(C)NC(=O)N(c2ccc([N+](=O)[O-])c(C(F)(F)F)c2)C1=O
assignedCategory: inactive
--
molecule: Cc1cccc(Nc2ccccc2C(=O)O)c1C
assignedCategory: inactive
--
molecule: CN(C)CCCN1c2ccccc2Sc2ccc(Cl)cc21
assignedCategory: inactive
--
molecule: C=C[C@H]1CN2CC[C@H]1C[C@H]2[C@H](O)c1ccnc2ccc(OC)cc12
assignedCategory: inactive
--
molecule: O=C(O)c1ccc(O)cc1
assignedCategory: inactive
--
molecule: CC(=O)O[C@]1(C(C)=O)CC[C@H]2[C@@H]3C=C(C)C4=CC(=O)CC[C@]4(C)[C@H]3CC[C@@]21C
assignedCategory: inactive
--
molecule: C1COCCN1
assignedCategory: inactive
--
molecule: OC[C@H]1O[C@@H]2O[C@H]3[C@H](O)[C@@H](O)[C@@H](O[C@H]4[C@H](O)[C@@H](O)[C@@H](O[C@H]5[C@H](O)[C@@H](O)[C@@H](O[C@H]6[C@H](O)[C@@H](O)[C@@H](O[C@H]7[C@H](O)[C@@H](O)[C@@H](O[C@H]1[C@H](O)[C@H]2O)O[C@@H]7CO)O[C@@H]6CO)O[C@@H]5CO)O[C@@H]4CO)O[C@@H]3CO
assignedCategory: inactive
--
molecule: CC(C)=CCO
assignedCategory: inactive
--
molecule: COCCOCCOCCO
assignedCategory: inactive
--
molecule: Cc1ccc2c(c1)C(=O)OC2=O
assignedCategory: inactive
--
molecule: c1ccc2c(c1)ccc1ncccc12
assignedCategory: inactive
--
molecule: CC(=O)O[C@]1(C(C)=O)CC[C@H]2[C@@H]3C=C(Cl)C4=CC(=O)CC[C@]4(C)[C@H]3CC[C@@]21C
assignedCategory: inactive
--
molecule: CCC/C=C/C=O
assignedCategory: inactive
--
molecule: Oc1c(Cl)ccc(Cl)c1Cl
assignedCategory: inactive
--
molecule: C/C=C/C(=O)N(CC)c1ccccc1C
assignedCategory: inactive
--
molecule: C=CCNCC=C
assignedCategory: inactive
--
molecule: CC(=O)Nc1ccc2c(c1)Cc1cc(NC(C)=O)ccc1-2
assignedCategory: inactive
--
molecule: CC(C)[C@@H]1CC[C@@H](C)CC1=O
assignedCategory: inactive
--
molecule: CCCCCCCCCCCCCO
assignedCategory: inactive
--
molecule: CN(Cc1cnc2nc(N)nc(N)c2n1)c1ccc(C(=O)N[C@@H](CCC(=O)O)C(=O)O)cc1
assignedCategory: active

* * *

Test: A CellTox Green Cytotoxicity Assay to monitor cytotoxicity in HEK293 cells - 0 hour (AID 1224869); further: nearly all actives have a fitted effect of over 50% in size
Conditions: CellTox Green fluorescence; series mostly up to 76.8 µM
Calls of active or inactive are those of the source. The call rests on the fitted dose curve; in most records, active means well fitted activation curve with a large enough effect in the repeat runs; inconclusive means weak or mixed curves; inactive means flat fitted curve, though single readings scatter.

compoundSmiles: Oc1ccc(C(c2ccc(O)cc2)C(Cl)(Cl)Cl)cc1
outcome: inactive
//
compoundSmiles: C=C[C@H]1CN2CC[C@H]1C[C@@H]2[C@@H](O)c1ccnc2ccc(OC)cc12
outcome: inactive
//
compoundSmiles: NCCN
outcome: inactive
//
compoundSmiles: CC(=O)[C@H]1CC[C@H]2[C@@H]3CC=C4C[C@@H](O)CC[C@]4(C)[C@H]3CC[C@]12C
outcome: inactive
//
compoundSmiles: COc1ccc(-c2coc3cc(O)cc(O)c3c2=O)cc1
outcome: inactive
//
compoundSmiles: CC/C(=C(/CC)c1ccc(O)cc1)c1ccc(O)cc1
outcome: inactive
//
compoundSmiles: Cc1ccc(N)c([N+](=O)[O-])c1
outcome: inactive
//
compoundSmiles: OC[C@H]1O[C@@H]2O[C@H]3[C@H](O)[C@@H](O)[C@@H](O[C@H]4[C@H](O)[C@@H](O)[C@@H](O[C@H]5[C@H](O)[C@@H](O)[C@@H](O[C@H]6[C@H](O)[C@@H](O)[C@@H](O[C@H]7[C@H](O)[C@@H](O)[C@@H](O[C@H]1[C@H](O)[C@H]2O)O[C@@H]7CO)O[C@@H]6CO)O[C@@H]5CO)O[C@@H]4CO)O[C@@H]3CO
outcome: inactive

The reported measurements were obtained from PubChem BioAssay (Tox21).
